Test system: 186277-243-T-J2-PDC complex spheroids, viability
Assay: Anticancer human tumor 186277-243-T-J2-PDC patient-derived colon adenocarcinoma cell line growth inhibition [RAS]
Conditions: second compound 0.00949 µM; first compound 0.3 µM; stronger effect = lower value
From the text: RAS pathway inhibitors in Combinations in Complex Spheroids A high-throughput screen of multi-cell type tumor spheroids was designed to identify active combinations of RAS pathway inhibitors and targeted small molecules. Complex spheroids include a stromal component modeled by human endothelial cells (HUVEC) and fibroblasts modeled by human mesenchymal stem cells (MSCs). […] Compounds. […] If the clinical Cmax for an agent had not been determined, the highest concentration tested was 10 microM. […]
value kind: viability, T/C

The examples below pair each entry with its known result.
compound	test system	viability, T/C
CC1(C)CCC(Nc2ncc(C(F)(F)F)c(-c3c[nH]c4c(P(C)(C)=O)c(C#N)ccc34)n2)CN1 (centres undefined) + CCn1c(-c2cccnc2C(C)OC)c2c3cc(ccc31)N1CCOC(CC(NC(=O)C(C(C)C)N(C)C(=O)C3(F)CCN(C(=O)C#CC(C)(C)N(C)C)CC3)C(=O)N3CCCC(N3)C(=O)OCC(C)(C)C2)C1	186277-243-T-J2-PDC complex spheroids, viability	50.5%
CC1(C)CCC(Nc2ncc(C(F)(F)F)c(-c3c[nH]c4c(P(C)(C)=O)c(C#N)ccc34)n2)CN1 (centres undefined) + CCn1c(-c2cc(N3CCN(C)CC3)cnc2C(C)OC)c2c3cc(ccc31)-c1csc(n1)CC(NC(=O)C1CC1C)C(=O)N1CCCC(N1)C(=O)OCC(C)(C)C2	186277-243-T-J2-PDC complex spheroids, viability	18.2%
CCc1c2c(nc3ccc(O)cc13)-c1cc3c(c(=O)n1C2)COC(=O)[C@]3(O)CC + CCn1c(-c2cccnc2C(C)OC)c2c3cc(ccc31)N1CCOC(CC(NC(=O)C(C(C)C)N(C)C(=O)C3(F)CCN(C(=O)C#CC(C)(C)N(C)C)CC3)C(=O)N3CCCC(N3)C(=O)OCC(C)(C)C2)C1	186277-243-T-J2-PDC complex spheroids, viability	12.1%

Continue with the compound presented below.
So for CCc1c2c(nc3ccc(O)cc13)-c1cc3c(c(=O)n1C2)COC(=O)[C@]3(O)CC + CCn1c(-c2cc(N3CCN(C)CC3)cnc2C(C)OC)c2c3cc(ccc31)-c1csc(n1)CC(NC(=O)C1CC1C)C(=O)N1CCCC(N1)C(=O)OCC(C)(C)C2 , the logged viability, T/C turned out to be 2.17%

====

System: 186277-243-T-J2-PDC complex spheroids, viability
Assay: Anticancer human tumor 186277-243-T-J2-PDC cell line growth inhibition [RAS]; active means viability on the fitted dose curve at most 10% of control; inactive means the rest;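 note: spheroids exposed to compounds for 7 days before viability read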
Conditions: second compound 0.3 µM; first compound 1 µM
Hi there, use one of these labels in your reply, thanks! Y (active), N (inactive)

Worked cases, answers included:
compound	label class
Cc1nc(N2CCC3(CC2)COC(C)C3N)c(CO)nc1Sc1ccnc(N)c1Cl (stereo not drawn) + CCn1c(-c2cc(N3CCN(C)CC3)cnc2C(C)OC)c2c3cc(ccc31)-c1csc(n1)CC(NC(=O)C1CC1C)C(=O)N1CCCC(N1)C(=O)OCC(C)(C)C2	Y
C=CC(=O)N1CCN(c2nc(OCC3CCCN3C)nc3c(F)c(-c4nc(N)cc(C)c4C(F)(F)F)c(Cl)cc23)C(C)C1 (stereo not drawn) + CCn1c(-c2cc(N3CCN(C)CC3)cnc2C(C)OC)c2c3cc(ccc31)-c1csc(n1)CC(NC(=O)C1CC1C)C(=O)N1CCCC(N1)C(=O)OCC(C)(C)C2	Y
Nc1ccn(C2OC(CO)C(O)C2(F)F)c(=O)n1 (stereo not drawn) + CCn1c(-c2cc(N3CCN(C)CC3)cnc2C(C)OC)c2c3cc(ccc31)-c1csc(n1)CC(NC(=O)C1CC1C)C(=O)N1CCCC(N1)C(=O)OCC(C)(C)C2	Y
Cc1nc(N2CCC3(CC2)COC(C)C3N)c(CO)nc1Sc1ccnc(N)c1Cl (stereo not drawn) + CCn1c(-c2cccnc2C(C)OC)c2c3cc(ccc31)N1CCOC(CC(NC(=O)C(C(C)C)N(C)C(=O)C3(F)CCN(C(=O)C#CC(C)(C)N(C)C)CC3)C(=O)N3CCCC(N3)C(=O)OCC(C)(C)C2)C1	N

Would you mind telling me which call this test gave CCC(CC)c1cc(NC2CCC(N)C2)n2nccc2n1 (stereo not drawn) + CCn1c(-c2cccnc2C(C)OC)c2c3cc(ccc31)N1CCOC(CC(NC(=O)C(C(C)C)N(C)C(=O)C3(F)CCN(C(=O)C#CC(C)(C)N(C)C)CC3)C(=O)N3CCCC(N3)C(=O)OCC(C)(C)C2)C1 ?
N

Would you mind telling me which call this test gave C[C@@H](NC(=O)c1ncnc(N)c1Cl)c1ncc(C(=O)Nc2cc(C(F)(F)F)c(Cl)cn2)s1 + CCn1c(-c2cccnc2C(C)OC)c2c3cc(ccc31)N1CCOC(CC(NC(=O)C(C(C)C)N(C)C(=O)C3(F)CCN(C(=O)C#CC(C)(C)N(C)C)CC3)C(=O)N3CCCC(N3)C(=O)OCC(C)(C)C2)C1 ?
N

Would you mind telling me which call this test gave C=CC(=O)Nc1cc(Nc2nccc(-c3cn(C)c4ccccc34)n2)c(OC)cc1N(C)CCN(C)C + CCn1c(-c2cc(N3CCN(C)CC3)cnc2C(C)OC)c2c3cc(ccc31)-c1csc(n1)CC(NC(=O)C1CC1C)C(=O)N1CCCC(N1)C(=O)OCC(C)(C)C2 ?
Y

Would you mind telling me which call this test gave CC(C)NCC(C(=O)N1CCN(c2ncnc3c2C(C)CC3O)CC1)c1ccc(Cl)cc1 (stereo not drawn) + CCn1c(-c2cccnc2C(C)OC)c2c3cc(ccc31)N1CCOC(CC(NC(=O)C(C(C)C)N(C)C(=O)C3(F)CCN(C(=O)C#CC(C)(C)N(C)C)CC3)C(=O)N3CCCC(N3)C(=O)OCC(C)(C)C2)C1 ?
N
